Below, each of the molecules is paired with its reported log10 IC50 value.
- Tested on: K562
- protocol text: Concentration that reduces [3H]thymidine incorporation by 50% in chronic myelogenous leukemia cell line K-562 after 5 h
- Format: functional, cell-based
- details: Homo sapiens
measured quantity: log10 IC50 (log10 of the value in µg/mL)

| molecule | log10 IC50 |
| --- | --- |
| O=c1nc2c(ncn2Cc2ccccc2)c(C#CC2CC2)n1Cc1ccccc1 | -0.40 |
| O=C1Nc2c(ncn2Cc2ccccc2)C(C#CC2CC2)N1Cc1ccccc1 (stereo not given) | 0.20 |
| CC1c2ncn(Cc3ccccc3)c2NC(=O)N1Cc1ccccc1 (stereo not given) | 0.40 |
| O=C1Nc2c(ncn2Cc2ccccc2)C(C#CC2CC2)(C(F)(F)F)N1Cc1ccccc1 (stereo not given) | -0.40 |
| O=C1Nc2c(ncn2Cc2ccccc2)C(c2ccccc2)N1Cc1ccccc1 (stereo not given) | 0.71 |
| O=C1Nc2c(ncn2Cc2ccccc2)C(C(F)(F)F)N1Cc1ccccc1 (stereo not given) | 1.00 |
| O=C1Nc2c(ncn2Cc2ccccc2)C(C#Cc2ccccc2)N1Cc1ccccc1 (stereo not given) | 0.15 |
| O=c1nc2c(ncn2Cc2ccccc2)c(C#Cc2ccccc2)n1Cc1ccccc1 | 0.00 |
